B1: SASS6 (parent)
chain: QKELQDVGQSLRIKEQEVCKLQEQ

- Variants of: B1
- method.notes: protein stability index of a GFP-peptide fusion (GPS, HEK-293T) (PSI 1-6); higher = more stable;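 note: lentivirally expressed fusions sorted by FACS into six bins by GFP to DsRed ratio, PSI derived from sequencing read proportions per bin multiplied by bin number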
- recorded.conditions: c terminus: a fixed tail appended
Rule: protein stability index of 5 or more gives y; anything lower gives n.

>  <alteration>
K20V

>  <category>
y

$$$$

input: Hi team, for `D6T` , is the recorded protein stability index at or above 5?
output: n

input: Please indicate if the recorded protein stability index for `E23N` meets or exceeds 5.
output: n

input: Kindly determine if protein stability index recorded for `K20R` is above or exactly 5.
output: n

input: Reported protein stability index at or above 5? `Q9T`
output: y

input: Entry `L4A` : is its protein stability index no less than 5?
output: y
